Test system: SNB-78
Protocol summary: NCI tumour cell line growth inhibition, 48 h
Active and inactive are the calls of the source. No stated cut-off is given here; in the data, active = GI50 up to about 1.1 µM and inactive = higher.
Metric name: GI50

COC1=CC(=O)C2C(C1=O)[C@@H]1c3ccccc3OC[C@H]21 (stereo partly specified); > 100 µM (inactive)
NC1(C(=O)O)CCCC1 [CYCLOLEUCINE]; > 244 µM (inactive)
O=C(CC12C3C4C1C1C2C3C41CC(=O)NO)NO (stereo unspecified); 44.3 µM (inactive)
O=C(NCC#CCO)C(F)(F)F; > 100 µM (inactive)

response.value for Cc1ccccc1N(CCC#N)C1=NN(C(=O)CC(=O)Nc2ccc(Cl)cc2)C(c2ccccc2)C1 (stereo unspecified) (field: GI50) = > 100 µM (inactive)

Quick note, GI50 for O=C(O)c1ccccc1NS(=O)(=O)c1ccc([N+](=O)[O-])cc1 landed at > 100 µM (inactive)

Memo: [O-][n+]1c2cc(CN3CCOCC3)c(CN3CCOCC3)cc2[n+]([O-])c2c(O)cccc21 , reported GI50: 3.18 µM (inactive)

In plain terms, O=c1c2cc(Br)cc(Br)c2[nH]c(=S)n1-c1ccccc1 has a documented GI50 of > 100 µM (inactive)

According to the records, this compound Cc1c2cnccc2c(C)c2c1c1ccccc1n2CCCCCCNCc1ccccc1 displays GI50 of 1.96 µM (inactive)

// GI50 lookup, compound = C=C(C(=O)C(=O)Oc1ccc(Cl)cc1)C(=O)c1ccc(C)cc1 , result: 65 µM (inactive)

CC(=O)OC1(C#N)CC2OC1C1NC21 (stereo unspecified) yielded GI50 of > 100 µM (inactive)

---

System: LOX IMVI
Protocol summary: NCI tumour cell line growth inhibition, 48 h
The source made the active and inactive calls. Cut-off read from the data, not from the text of the source: active = GI50 up to about 1.1 µM and inactive = higher.
Response enum: yes = active, no = inactive

Some solved cases for reference:
CC(=O)C(C)(C)CCC(C)(C)C(C)=O; no
Nc1c(Cl)ncnc1NCCCCCCCCCCCCNc1ncnc(Cl)c1N; yes
O=C1C=CC=CC2CC=C[C@@H](O)C12 (stereo not given in full); no
CC(=O)OCC12C(OC(C)=O)C(=O)C3C(OC(C)=O)C14OC3(C)COC(=O)c1cccnc1C(C)C(C)C(=O)OC(C(OC(C)=O)C2OC(C)=O)C4(C)O (stereo not given); no

From here, focus on the item given below.
In: Outcome? CC[C@@H]1CC[C@@H]2[C@H](CC[C@]3(C)[C@@H](OC(C)=O)CC[C@@H]23)[C@H]1C(=O)OC
Out: no

---

Tested on: OVCAR-8
Protocol summary: NCI tumour cell line growth inhibition, 48 h
Active and inactive are the calls of the source. Rule as the data show it: active = GI50 up to about 1.1 µM and inactive = higher. Positions of bridges follow the written chain, without caps; N, C: chain ends. Residues, ends and D or L forms follow the SMILES beside them.
Thanks in advance; please answer with one of these: active, inactive

Use the examples below as a reference point.
CCC(C)C1NC(=O)C(CC(C)C)NC(=O)C(C(C)C)NC(=O)C2CSSCC(NC1=O)C(=O)N2 (stereo not given) (cyclo(CCVLI); disulfide 1-2; configuration not given here); active
c1c[nH]c(C23C4C5C6C4C2C6C53)n1 (stereo not given); inactive
Nc1ncnc2c1ncn2[C@@H]1O[C@H](COP(=O)(O)OP(=O)(O)OC[C@H]2O[C@@H](OCCCO)[C@H](O)[C@@H]2O)[C@@H](O)[C@H]1O; inactive
CCC1(CN(C)C)CC/C(=C\c2ccc(OC)c(OC)c2)C1=O (stereo not given); inactive

Here's the next entry for you.
In: Answer briefly: the call reported for CN(C)C1(C#N)CCC2(CC1)OCCO2 in this assay.
Out: inactive

---

Tested on: SN12C
Protocol summary: NCI tumour cell line growth inhibition, 48 h
Activity calls are given as the source filed them. No stated cut-off is given here; in the data, active = GI50 up to about 1.1 µM and inactive = higher.
Metric name: GI50

Here are 9 compounds together with their reported answers.
Cc1cc2c(=O)c3ccc(Cl)cc3[nH]c2c(C(=O)O)c1C; > 100 µM (inactive)
Nc1n[nH]c2nc3ccccc3nc12 [QUINOXALINE1]; > 100 µM (inactive)
O=S(=O)(O)c1ccc2c(/N=N/c3ccc(/N=N/c4ccccc4)cc3)c(O)c(S(=O)(=O)O)cc2c1; > 100 µM (inactive)
Cc1ccccc1N(CCC#N)C1=NN(C(=O)CC(=O)Nc2ccc(Cl)cc2)C(c2ccccc2)C1 (stereo not given); > 100 µM (inactive)
Nc1c(C(=O)c2ccc(Cl)c(Cl)c2)[nH]c(NCc2ccccc2)c1C(=S)Nc1ccccc1; 14.9 µM (inactive)
Fc1cc(-c2cc(-c3ccccc3)n[nH]2)c(Cl)cc1Cl; > 100 µM (inactive)
O=C1/C(=C/c2cccs2)NC(=S)N1CN1CCCCC1; 97.5 µM (inactive)
O=C1c2ccccc2C(=O)c2c1ccc1nc3c(nc21)-c1c2ccccc2cc2cccc-3c12; 35.8 µM (inactive)
CC(C)OP(=O)(OC(C)C)/C(I)=N/Nc1ccc([N+](=O)[O-])cc1; > 100 µM (inactive)

Item: Cc1ccc(/C(O)=C/c2nc3ccccc3oc2=O)cc1 | System: SN12C | GI50: > 100 µM (inactive)

---

Test system: MDA-MB-231
Protocol summary: NCI tumour cell line growth inhibition, 48 h
Activity calls are given as the source filed them. Rule as the data show it: active = GI50 up to about 1.1 µM and inactive = higher.
Metric name: GI50

As a guide, the following entries are already answered.
CSc1nc(=O)cnn1C; > 100 µM (inactive)
CC1CCc2c(c(CC3CC(=O)NC(=O)C3)nn2-c2ccccc2)C1 (stereo unspecified); > 100 µM (inactive)

Measured GI50 of C[C@]12CCC3=NCCN3C1=CC[C@@H]1[C@@H]2CC[C@@]2(C)[C@H]1CC[C@]2(C)O : > 100 µM (inactive)

Per the record, CC1=NN(c2ccccc2)C(=O)C1/N=N/c1ccc([As](=O)(O)O)c(O)c1 (stereo unspecified) has GI50 of > 100 µM (inactive)

Record summary for O=C1/C(=C/c2cccs2)NC(=S)N1CN1CCCCC1 : reported GI50 = > 100 µM (inactive)

GI50 for Cc1nc2c(nc1C)-c1[nH]c3c(c1C(=O)C2=O)CCCC3=O is 1.59 µM (inactive)

---

Reported GI50 by item:
Tested on: XF498
Protocol summary: NCI tumour cell line growth inhibition, 48 h
The source made the active and inactive calls. Rule as the data show it: active = GI50 up to about 1.1 µM and inactive = higher.

// below: answered compounds
CC(C(=O)c1ccccc1)C1(O)C(=O)Nc2ccc(Cl)cc21 (stereo not drawn); > 100 µM (inactive)
CCCN(CCC)c1c([N+](=O)[O-])cc(C(N)=O)cc1[N+](=O)[O-]; 81.3 µM (inactive)
CCCCCCCCCCCCCCCCCCNC(=O)OCC(CNS(=O)(=O)CCC[n+]1cccc2ccccc21)COC (stereo not drawn); 1.43 µM (inactive)
C=CCN1CCC23c4c5ccc(O)c4OC2C(=NN=C2CCC4(O)C6Cc7ccc(O)c8c7C4(CCN6CC=C)C2O8)CCC3(O)C1C5 (stereo not drawn); 17.3 µM (inactive)

[O-][n+]1c2cc(CN3CCOCC3)c(CN3CCOCC3)cc2[n+]([O-])c2c(O)cccc21 yielded GI50 of 1.83 µM (inactive)

// sample O=C1NC2(CCCCC2)C2=C1CCCCC2 , its GI50 was > 100 µM (inactive)

Record summary for O=C(NCC#CCO)C(F)(F)F : reported GI50 = > 100 µM (inactive)

Looking up C=C(C(=O)C(=O)Oc1ccc(Cl)cc1)C(=O)c1ccc(C)cc1 , I found its GI50 recorded as > 100 µM (inactive)

---

Test system: SK-MEL-5
Protocol summary: NCI tumour cell line growth inhibition, 48 h
Active and inactive are the calls of the source. No stated cut-off is given here; in the data, active = GI50 up to about 1.1 µM and inactive = higher.
Form entry, call: pick from YES for active, NO for inactive

CN(C(=O)C12C3C4C1C1C2C3C41C(O)C(C)(C)C)C(C)(C)C (stereo unspecified); NO
COc1cc(C2CC(C)(N3CCCC3)Oc3cc4c(cc32)OCO4)cc(OC)c1OC (stereo unspecified); YES
NCc1ccc(O)c(O)c1O; NO

In: Assay outcome for CCCc1n[nH]c(=O)n1N1C(=O)C=CC1=O : what was it?
Out: NO

In: Which outcome was entered for the compound C=C(C)[C@@H]1CCC2=C[C@H](C/C(C)=C\C3=CC(C)=C(O3)[C@H]1O)OC2=O in this test?
Out: NO

In: Which outcome did this test record for the compound Cc1ccccc1NC(=O)C(=O)c1c(O)c2ccc(O)cc2oc1=O ?
Out: NO

In: So what was the verdict on CC1C(=O)CCC1C(Sc1ccccc1)(Sc1ccccc1)Sc1ccccc1 (stereo unspecified) in this test?
Out: NO

In: For CCOC(=O)N1C(=O)C2C3C=CC(C2C1=O)C1C2C(=O)N(C(=O)OCC)C(=O)C2C31 (stereo unspecified) , which call appears in the assay record?
Out: NO

In: Outcome? CCCC(CCC(N)=O)(CCC(N)=O)[N+](=O)[O-]
Out: NO

In: Which result was noted for this compound in the test: CN/N=C(\C)CC(=O)Nc1cccc(Cl)c1C
Out: NO

In: Field: outcome | Entry: O=C(CCN(CCO)CCO)Nc1ccc2c(c1)C(=O)c1ccc(NC(=O)CCN(CCO)CCO)cc1C2=O
Out: NO
